Reported protein stability index by item:
B1: RIPK4 (parent)
chain: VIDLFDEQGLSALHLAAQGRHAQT

Variants of: B1
Experiment: protein stability index of a GFP-peptide fusion (GPS, HEK-293T) (PSI 1-6); higher = more stable;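 further: lentivirally expressed fusions sorted by FACS into six bins by GFP to DsRed ratio, PSI derived from sequencing read proportions per bin multiplied by bin number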
Settings: c terminus: a fixed tail appended
Give the value as a plain number.

Worked cases, answers included:
A22S ... 2.91
D6R ... 2.04
Q8F ... 2.05
H14W ... 1.9
S11M ... 2.18
E7K ... 1.86

In: Recorded protein stability index for L4Q , please?
Out: 3.98
